experiment: chemical genetic growth profiling, strain panel (AID 1159580);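 also: tested at 20 µM; growth read once vehicle control cultures reached saturation at 30 °C; 1 = growth at the plate median or of vehicle wells; lower values mean less growth of the strain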; conditions: S. cerevisiae deletion strains, growth OD, locus YNL183C, strain NPR1
The whole screen tested about 5,500 compounds, of which about 2,000 (36%) were called active. Inconclusive results (about 18%) are left out. Rule as the data show it: active = normalized growth mostly below about 0.91 (no sharp cut-off); inconclusive = no clear call, values can overlap the other calls; inactive = mostly above about 0.92. Some of the results follow.
Thanks in advance; please answer with one of these: active, inactive

Observe how each entry below is paired with its result.
Query: Dear all, I need the recorded test outcome for COC(=O)CCC(C)C1CCC2C3CC[C@@H]4C[C@H](O)CC[C@]4(C)C3C[C@H](O)[C@]12C (stereo not given in full) , thank you.
Reply: inactive

Query: Dear all, I need the recorded test outcome for C=C1C(C2(C)C=CC(=O)C(C)(C)C2CC(=O)OC)CC[C@@]2(C)[C@H](c3ccoc3)OC(=O)C3OC132 (stereo not given in full) , thank you.
Reply: inactive

Query: Dear all, I need the recorded test outcome for CC(CCC(=O)O)[C@H]1CCC2C3C(C[C@H](O)[C@@]21C)[C@@]1(C)CC[C@@H](O)C[C@H]1C[C@H]3O (stereo not given in full) , thank you.
Reply: inactive

Query: Dear all, I need the recorded test outcome for COc1ccc(C(=O)CC(=O)c2ccc(C(C)(C)C)cc2)cc1 , thank you.
Reply: inactive

Query: Dear all, I need the recorded test outcome for CC(C)(C)C(=O)/C(C#N)=C/c1c(Cl)cccc1Cl , thank you.
Reply: active

More entries:
Query: Dear all, I need the recorded test outcome for N#C/C(=C\c1cccc(O)c1)C(=O)O , thank you.
Reply: inactive

====

test: chemical genetic growth profiling, strain panel (AID 1159580);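 also: tested at 20 µM; growth read once vehicle control cultures reached saturation at 30 °C; 1 = growth at the plate median or of vehicle wells; lower values mean less growth of the strain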; conditions: S. cerevisiae deletion strains, growth OD, locus YKR001C, strain vps1, stronger effect = lower value
About 2,000 (36%) of roughly 5,500 compounds were called active. About 18% were inconclusive and are not listed. The list shows a part of the results.
valueKind: normalized growth
Reply briefly: the number, and no unit.

For orientation, consider the following solved cases.
Query: Assign normalized growth to the following record: COc1ccc(C(=O)CC(=O)c2ccc(C(C)(C)C)cc2)cc1
Reply: 1

Query: Assign normalized growth to the following record: CC(CCC(=O)O)[C@H]1CCC2C3C[C@H](O)[C@@H]4C[C@H](O)CC[C@]4(C)C3CC[C@@]21C (stereo partly specified)
Reply: 1.06

Query: Assign normalized growth to the following record: C=C[C@H]1CN2CC[C@H]1C[C@@H]2[C@H](O)c1ccnc2ccccc12
Reply: 0.997

More entries:
Query: Assign normalized growth to the following record: NC(N)=NCCCC(NC(=O)C(N)Cc1ccc(O)cc1)C(=O)O (stereo unspecified)
Reply: 0.982

Query: Assign normalized growth to the following record: O=C(Nc1ccccc1)Nc1ccccc1
Reply: 0.97

Query: Assign normalized growth to the following record: COc1ccc(C(=O)N2CCCC2=O)cc1
Reply: 0.968

Query: Assign normalized growth to the following record: CSc1ccc2c(c1)N(CCC1CCCCN1C)c1ccccc1S2 (stereo unspecified)
Reply: 0.0672

Query: Assign normalized growth to the following record: Cc1cc(O)c(C=O)c2c1C(=O)Oc1c(COC(=O)/C=C/C(=O)O)c(O)c(C(=O)O)c(C)c1O2
Reply: 0.921

Query: Assign normalized growth to the following record: CC(=O)Nc1ccccc1
Reply: 0.98

Query: Assign normalized growth to the following record: C[C@H](N)[C@H](O)c1cccc(O)c1
Reply: 0.998

Query: Assign normalized growth to the following record: Cc1cc(O)c(C=O)c2c1C(=O)Oc1c(C)c(O)c3c(c1O2)C(O)OC3=O (stereo unspecified)
Reply: 1.01

These measurements were taken from PubChem BioAssay AID1159580.
